Target: Hexokinase-4 (Homo sapiens)
Sequence (P35557 whole entry): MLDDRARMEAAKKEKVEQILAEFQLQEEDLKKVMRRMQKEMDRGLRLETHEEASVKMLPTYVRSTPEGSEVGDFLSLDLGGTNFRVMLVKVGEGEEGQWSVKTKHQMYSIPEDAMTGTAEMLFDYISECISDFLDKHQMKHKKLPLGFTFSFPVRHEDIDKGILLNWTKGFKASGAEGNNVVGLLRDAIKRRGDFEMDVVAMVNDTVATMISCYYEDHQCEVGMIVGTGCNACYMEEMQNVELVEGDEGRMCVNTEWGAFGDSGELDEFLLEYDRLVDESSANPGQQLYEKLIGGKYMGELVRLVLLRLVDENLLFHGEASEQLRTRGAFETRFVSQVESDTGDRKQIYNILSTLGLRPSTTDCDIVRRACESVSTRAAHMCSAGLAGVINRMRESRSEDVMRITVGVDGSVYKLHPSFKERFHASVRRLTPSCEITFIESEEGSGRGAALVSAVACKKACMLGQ
Assay: Activation of His-tagged recombinant glucokinase expressed in Escherichia coli using [14C]-glucose substrate by […]
Property Label: EC50 (nM)

INSERT INTO measurements (smiles_entry, property_label, measured_value) VALUES
  ('COC[C@H](C)Oc1cc(OC[C@H](C)c2ccccc2)cc(C(=O)Nc2ccc(C(=O)O)cn2)c1', 'EC50', 70);

P. COC[C@H](C)Oc1cc(Oc2cc(F)cc(F)c2)cc(C(=O)Nc2ccc(C(=O)O)cn2)c1
Q. COC[C@H](C)Oc1cc(Oc2ccccc2)cc(C(=O)Nc2ccc(C(=O)O)cn2)c1
Query: Of P and Q , whose reported EC50 is numerically smaller? When you have decided, please share the label of that item.
Response: P
(P: 90 nM, Q: 160 nM)

* * *

Experiment: in vivo
Details: CR-Han Wistar, rat, iv, 1 mg/kg
Property Label: clearance (mL/min/kg)

Please review the entries below; each comes with its answer.
INSERT INTO results (smiles_entry, property_label, reading_unit, measured_value) VALUES
  ('COC[C@H](C)Oc1cc(O[C@@H](C)Cc2ccc(F)cc2)cc(C(=O)Nc2ccc(C(=O)O)cn2)c1', 'clearance', 'mL/min/kg', 1),
  ('CC(C)Oc1cc(Oc2ccccc2)cc(C(=O)Nc2ccc(C(=O)O)cn2)c1', 'clearance', 'mL/min/kg', 0.2);

A. COC[C@H](C)Oc1cc(Oc2cccc(Cl)c2)cc(C(=O)Nc2ccc(C(=O)O)cn2)c1
B. COC[C@H](C)Oc1cc(Oc2cccc(F)c2)cc(C(=O)Nc2ccc(C(=O)O)cn2)c1
C. COC[C@H](C)Oc1cc(Oc2cc(F)cc(F)c2)cc(C(=O)Nc2ccc(C(=O)O)cn2)c1
D. COC[C@H](C)Oc1cc(Oc2ccccc2)cc(C(=O)Nc2ccc(C(=O)O)cn2)c1
Query: Descending sort on clearance required. List labels; respect the requested ordering.
Response: A, D, B, C
(A: 0.8 mL/min/kg, D: 0.4 mL/min/kg, B: 0.2 mL/min/kg, C: 0.1 mL/min/kg)

// provenance: ChEMBL document CHEMBL1777741
